system: antibiotic resistant E. coli (E.C. 324); assay type: cell-based; conditions: 64 ppm; Gram Neg.; 6 h, 37° C., aerobic
Result type: Growth of E.C. 324 in the presence of the test compound

Compound	Value observed
Oc1ccc(Cl)cc1C1=Nc2cc(Cl)c(Cl)cc2NC1c1cc(Cl)ccc1O (stereo not drawn)	+
CC[C@H]1OC(=O)[C@H](C)[C@@H](O[C@H]2C[C@@](C)(OC)[C@@H](O)[C@H](C)O2)[C@H](C)[C@@H](O[C@@H]2O[C@H](C)C[C@H](N(C)C)[C@H]2O)[C@](C)(O)C[C@@H](C)C(=O)[C@H](C)[C@@H](O)[C@]1(C)O	+
NC[C@H]1O[C@H](O[C@H]2[C@H](O)[C@@H](O[C@H]3O[C@H](CO)[C@@H](O)[C@H](N)[C@H]3O)[C@H](N)C[C@@H]2N)[C@H](O)[C@@H](O)[C@@H]1O	-

====

tested on: Streptococcus sp. 1 X A7 (Strep A7); assay type: cell-based; details: 6.4 ppm
Result type: Growth of Strep A7 in the presence of the test compound

Molecule	Assay target	Value observed
CC[C@H]1OC(=O)[C@H](C)[C@@H](O[C@H]2C[C@@](C)(OC)[C@@H](O)[C@H](C)O2)[C@H](C)[C@@H](O[C@@H]2O[C@H](C)C[C@H](N(C)C)[C@H]2O)[C@](C)(O)C[C@@H](C)C(=O)[C@H](C)[C@@H](O)[C@]1(C)O	Streptococcus sp. 1 X A7 (Strep A7)	-
Oc1ccc(Cl)cc1C1=Nc2cc(Cl)c(Cl)cc2NC1c1cc(Cl)ccc1O (centres unmarked)	Streptococcus sp. 1 X A7 (Strep A7)	+
NC[C@H]1O[C@H](O[C@H]2[C@H](O)[C@@H](O[C@H]3O[C@H](CO)[C@@H](O)[C@H](N)[C@H]3O)[C@H](N)C[C@@H]2N)[C@H](O)[C@@H](O)[C@@H]1O	Streptococcus sp. 1 X A7 (Strep A7)	-
CC[C@H]1OC(=O)C[C@@H](O)[C@H](C)[C@@H](O[C@@H]2O[C@H](C)[C@@H](O[C@H]3C[C@@](C)(O)[C@@H](O)[C@H](C)O3)[C@H](N(C)C)[C@H]2O)[C@@H](CC=O)C[C@@H](C)C(=O)/C=C/C(C)=C/[C@@H]1CO[C@@H]1O[C@H](C)[C@@H](O)[C@@H](OC)[C@H]1OC	Streptococcus sp. 1 X A7 (Strep A7)	-

INPUT: Form field - read-out: Growth of Strep A7 in the presence of the test compound; system: Streptococcus sp. 1 X A7 (Strep A7); submitted item: CN(C)[C@@H]1C(O)=C(C(N)=O)C(=O)[C@@]2(O)C(O)=C3C(=O)c4c(O)ccc(Cl)c4[C@@](C)(O)[C@H]3C[C@@H]12
OUTPUT: -
